Biological target: GDP-loaded KRAS (1-169) G12C, C51S, C80L, C118S (Homo sapiens, UniProt P01116, C118S/C51S/C80L/G12C)
Construct: GDP-loaded KRAS (1-169) G12C, C51S, C80L, C118S
Assay: Mass Spectrometry Reactivity Assay (MSRA): covalent adduct of compound and KRAS G12C, Percent Modification
Format: binding
Settings: 5.0 μM compound, 0.25 hr
readout-name: MSRA (% modification) 5.0 μM 0.25 hr (%)

These solved cases illustrate the format of a correct answer.
{"columns": ["compound", "numeric-value"],
 "data": [
  ["C=CC(=O)N1CCN(c2nc(OC[C@@H]3COCCN3C)nc3c(Oc4c(Cl)c(F)cc5[nH]ncc45)nccc23)CC1 [Example 03H]", 51],
  ["C=CC(=O)N1CCN(c2nc(Oc3cccnc3CC)nc3c(Oc4c(Cl)c(F)cc5[nH]ncc45)nccc23)CC1 [Example 03I]", 52]
]}

(P) C=CC(=O)N1CCN(c2nc(N3CC(N(C)C)C3)nc3c(Oc4c(Cl)c(F)cc5[nH]ncc45)nc(Cl)cc23)CC1 [Example 05G]
(Q) C=CC(=O)N1CCN(c2nc(OC[C@]3(F)CCN(C)C3)nc3c(Oc4c(Cl)c(F)cc5[nH]ncc45)nccc23)CC1 [Example 14H]
Prompt: Which has the higher MSRA (% modification) 5.0 μM 0.25 hr, P or Q ? Label of pick, please.
Completion: P
(P: 80%, Q: 52%)

----------
Target: KRAS G12C (Homo sapiens, UniProt P01116, G12C)
Experiment: Cell Activity Assay: accumulation of GDP-bound KRAS G12C in MIAPaCa-2 cells (Raf-1 RBD capture, MSD readout)
Format: cell-based
Design: endogenous in cells; host or cells: MIAPaCa-2
Conditions: 6 hours, assay limit is 30.00
readout-name: IC50 (µM)

Known results for compounds:
{"columns": ["compound", "study-target", "numeric-value"],
 "data": [
  ["C=CC(=O)N1CCN(c2nc(N3CCN(C)CC3)nc3c(Oc4c(C)ccc5[nH]ncc45)nccc23)CC1 [Example 03B]", "KRAS G12C (Homo sapiens, UniProt P01116, G12C)", 27.1],
  ["C=CC(=O)N1CCN(c2nc(Oc3cccc4c3CCN(CC)C4)nc3c(Oc4c(Cl)c(F)cc5[nH]ncc45)nccc23)CC1 [Example 17I]", "KRAS G12C (Homo sapiens, UniProt P01116, G12C)", 0.005],
  ["C=CC(=O)N1CCN(c2ncnc3c(Oc4c(C)ccc5[nH]ncc45)nc(C(F)(F)F)cc23)CC1 [Example 03A]", "KRAS G12C (Homo sapiens, UniProt P01116, G12C)", 2.74],
  ["C=CC(=O)N1CCN(c2nc(N3CC[C@@H](N(C)C)C3)nc3c(Oc4c(C)ccc5[nH]ncc45)cccc23)CC1 [Example 09E]", "KRAS G12C (Homo sapiens, UniProt P01116, G12C)", 7.4],
  ["C=CC(=O)N1CCN(c2nc(OC[C@]3(F)CCN(C)C3)nc3c(Oc4c(Cl)c(F)cc5[nH]ncc45)nccc23)CC1 [Example 14H]", "KRAS G12C (Homo sapiens, UniProt P01116, G12C)", 0.082]
]}

(P) C=CC(=O)N1CCN(c2nc(OC[C@@H]3C[C@H](F)CN3C)nc3c(Oc4c(C)c(Cl)cc5[nH]ncc45)nc(Cl)cc23)CC1 [Example 17G]
(Q) C=CC(=O)N1CCN(c2nc(N3CC[C@H](N(C)C)C3)nc3c(Oc4c(C)ccc5[nH]ncc45)cccc23)CC1 [Example 08E]
(R) C=CC(=O)N1CCN(c2ncnc3c(Oc4c(C)c(Cl)cc5[nH]ncc45)nc(C#N)cc23)CC1 [Example 28A]
(S) C=CC(=O)N1CCN(c2nc(OC[C@@H]3CCCN3C)nc3c(Oc4c(Cl)c(F)cc5[nH]ncc45)nc(Cl)cc23)C[C@@H]1C [Example 07G]
Prompt: // smallest IC50 at index 0, largest at the end # respond with the labels, arranged in the requested order
Completion: P, S, R, Q

This collection of values is drawn from patent US10662204B2.
